- Tested on: MDR1
- Assay Remarks: Permeability across LLCPK1 cells expressing MDR1 gene
- Type: ADME, cell-based
- Protocol Conditions: human, LLC-PK1; read-out: permeability
Items are presented alongside their recorded Papp.
Numbers only here, please. The scale is ×10⁻⁶ cm/s.

stdin: Please tell me: Papp of `CN(C)C(=O)N1CC(c2cc(F)ccc2F)=C[C@@]1(CC[C@H](N)C(F)F)c1ccccc1` , system MDR1?
stdout: 38

stdin: Param readout = Papp; param system = MDR1; param query = `CN(C)C(=O)N1CC(c2cc(F)ccc2F)=C[C@@]1(CCCN)c1ccccc1` ; response: value
stdout: 4

----------
- Assay Remarks: Ratio of IC50 for human KBV1 cells to human KB31 cells after 16 hrs
- Type: cell-based
- Protocol Conditions: KBV1 cells and KB31 cells, read-out: Ratio IC50
selectivity ratio at 16 h by entry:

Would you please look over these solved cases?
                                smiles_code  test_result
0  CCNCCC[C@@]1(c2ccccc2)C=C(c2cc(F)ccc2F)CN1C(=O)N(C)C        > 135
1  CN(C)C(=O)N1N=C(c2cc(F)ccc2F)C[C@@]1(CCCN)c1ccccc1          490
2  CN(C)C(=O)N1CC(c2cc(F)ccc2F)=C[C@@]1(CCCN)c1ccccc1         1200

Kindly review the next compound as well.
stdin: Dear colleague, I am looking for the recorded selectivity ratio at 16 h of the following compound: `CN(C)C(=O)N1CC(c2cc(F)ccc2F)=C[C@@]1(CCCNCC(F)F)c1ccccc1`
stdout: 3
